Give measured protein stability index for each item. Keep answers brief.
Experiment notes: protein stability index of a GFP-peptide fusion (yeast GPS) (PSI 1-4); higher = more stable; sorted into four equal gates, so the index is relative within each strain
Recorded conditions: pdr5∆
Form: value (number only, do not type unit).

Give the measured protein stability index of PTLPRSDRECPKCHSRE [RPB9] . 2.92

Request: IFSYGPHIQKMLSILEI [POP6] 1.93

Request: IANMVLPPEKIYSPLHS [SIR2] 1.99

Request: LLKSNDPLLSLYNFLHK [RGR1] 2.23

Request: NVLCVNIKSNDFSIRKT [ECM29] 2.66

Request: TSPVTGATEKRKCAKPF [CSL4] 1.27

Request: FPNGFKNFENGPKKNVF [RPC34] 3.27

Request: TTIEEIFLHSLPVKEFQ [RPS2] 2.78
